Values compiled from patent US20200354457A1.

- measured_target: T1, soluble human Lag3-IgG1-Fc with biotinylated C-terminal Avi-tag (human, biotin on the C-terminal Avi-tag)
- T1 construct: also called LAG3-Fc-avi; biotinylated LAG3-Fc antigen
- T1 sequence (chain, as listed by the source limits assumed): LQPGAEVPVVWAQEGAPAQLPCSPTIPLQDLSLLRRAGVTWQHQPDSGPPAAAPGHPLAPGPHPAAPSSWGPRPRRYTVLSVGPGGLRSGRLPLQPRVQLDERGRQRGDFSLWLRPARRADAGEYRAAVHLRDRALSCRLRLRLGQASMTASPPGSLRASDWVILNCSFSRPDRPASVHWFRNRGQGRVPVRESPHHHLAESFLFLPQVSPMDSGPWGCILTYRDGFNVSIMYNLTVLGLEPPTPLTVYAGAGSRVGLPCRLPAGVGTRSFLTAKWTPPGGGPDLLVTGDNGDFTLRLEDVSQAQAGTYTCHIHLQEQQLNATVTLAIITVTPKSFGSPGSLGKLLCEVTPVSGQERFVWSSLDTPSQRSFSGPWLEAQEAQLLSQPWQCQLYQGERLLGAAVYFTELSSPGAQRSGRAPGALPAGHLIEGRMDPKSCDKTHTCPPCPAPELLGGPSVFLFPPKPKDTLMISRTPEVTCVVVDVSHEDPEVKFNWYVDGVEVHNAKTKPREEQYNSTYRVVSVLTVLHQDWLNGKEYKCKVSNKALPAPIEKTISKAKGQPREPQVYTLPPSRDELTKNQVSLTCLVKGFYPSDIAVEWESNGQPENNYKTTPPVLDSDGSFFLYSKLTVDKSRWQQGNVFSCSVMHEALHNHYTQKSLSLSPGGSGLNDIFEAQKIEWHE
- assay_overview: SPR (ProteOn XPR36), biotinylated LAG3-Fc captured on NLC chip, purified aVH as analyte, 25 C;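 also: One-shot kinetics in PBST running buffer, rates fitted by 1:1 Langmuir model fitting association and dissociation together, KD as koff/kon, biotinylated Fc surface as negative control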
Hi! Just check whether kon is below 100000 M⁻¹ s⁻¹. Below gives Y, equal or above gives N.

Is kon of LAG3 P11E2 aVH domain (VHH) VHH: EVQLVESGGGLVQPGGSLRLSCAASGFNIKDTCIGWVRRAPGKGTELVAEICDDIGYTRYADSVKGRFTISADTSKNTAYLQMNSLRAEDTAVYYCASQEHQWSFKYWGQGTTVTVSS strictly below 100000 M⁻¹ s⁻¹? Y

Dear reviewer, please state whether LAG3 P10D1 aVH domain (VHH, also called P110D1) VHH: EVQLVESGGGLVQPGGSLRLSCAASGFSIKDTCIAWVRRAPGKGTELVAEICEDIGYTRYADSVKGRFTISADTSKNTAYLQMNSLRAEDTAVYYCAAKEAGVGFDYWGQGTTVTVSS has kon strictly beneath 100000 M⁻¹ s⁻¹. N

For LAG3 P9G1 aVH domain (VHH) VHH: EVQLVESGGGLVQPGGSLRLSCAASGFNIKDTCIGWVRRAPGKGTELVAEICQDIGYTRYADSVKGRFTISADTSKNTAYLQMNSLRAEDTAVYYCAGEEGATNFKYWGQGTTVTVSS , is the recorded kon below the cut-off of 100000 M⁻¹ s⁻¹? N

Does LAG3 9B4 aVH domain (VHH) VHH: EVQLVESGGGLVQPGGSLRLSCAASGFNIKDTCIGWVRRAPGKGTELVAEICQDIGYTRYADSVKGRFTISADTSKNTAYLQMNSLRAEDTAVYYCAAVEVAEYFEYWGQGTTVTVSS have kon strictly under 100000 M⁻¹ s⁻¹? Y

Dear reviewer, please state whether LAG3 17D7 aVH domain (VHH) VHH: EVQLVESGGGLVQPGGSLRLSCAASGFNIKDTCIGWVRRAPGKGTELVAEICTDIGYTRYADSVKGRFTISADTSKNTAYLQMNSLRAEDTAVYYCAAGEGSSGFHYWGQGTTVTVSS has kon strictly beneath 100000 M⁻¹ s⁻¹. Y

Strictly below 100000 M⁻¹ s⁻¹ in kon? LAG3 P11A2 aVH domain (VHH) VHH: EVQLVESGGGLVQPGGSLRLSCAASSFNIKDTYIGWVRRAPGKGTELVAEIACHEGTTRYADSVKGRFTISCDTSKNTAYLQMNSLRAEDTAVYYCANTEYDDIFDYWGQGTTVTVSS N

Is the reported kon for LAG3 21B11 aVH domain (VHH) VHH: EVQLVESGGGLVQPGGSLRLSCAASGFNIKDTCIGWVRRAPGKGTELVAEICQDIGYTRYADSVKGRFTISADTSKNTAYLQMNSLRAEDTAVYYCAADESVDNFKYWGQGTTVTVSS strictly below 100000 M⁻¹ s⁻¹? Y

Confirm or reject: kon of LAG3 19G3 aVH domain (VHH, also called P19G3) VHH: EVQLVESGGGLVQPGGSLRLSCAASGFNIKYQCIGWVRRAPGKGTELVAEICSYDGYTRYADSVKGRFTISADTSKNTAYLQMNSLRAEDTAVYYCAAEESVEGFIYWGQGTTVTVSS lies strictly below 100000 M⁻¹ s⁻¹ Y

Does LAG3 P11E9 aVH domain (VHH) VHH: EVQLVESGGGLVQPGGSLRLSCAASGFNIKDTCIGWVRRAPGKGTELVAEICHDIGYTRYADSVKGRFTISADTSKNTAYLQMNSLRAEDTAVYYCAAEEHVASFEYWGQGTTVTVSS have kon strictly under 100000 M⁻¹ s⁻¹? Y
